- System: Jurkat
- Procedure Summary: cells
- Condition Description: 24 h
No end group written: not given here.
Below, each entry is listed with its recorded IC50.
Please respond with the number in µM and leave the unit unwritten.

Use these answered entries as a reference point.
Inquiry: If you can, please state the reported IC50 value of KWKVFKKIEKKWKVFKKIEKAGPKWKVFKKIEK [CHM1] .
Reply text: 10.1

Inquiry: Quick one: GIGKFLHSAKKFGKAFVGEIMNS [Magainin II]
Reply text: 44

Moving on to another substance below.
Inquiry: If you can, please state the reported IC50 value of KWKVFKKIEKMGRNIRNGIVKAGPAIAVLGEAKAL-NH2 [CB, cecropin B] .
Reply text: 31.5
